# System: SW 1271 complex tumor spheroid viability
# measurementProtocol: Anticancer human tumor SW 1271 cell line growth inhibition;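 further: spheroids exposed to agents for seven days before readout; percent of DMSO vehicle control luminescence so 100% = vehicle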
# protocolConditions: second compound 0.0003 µM; first compound 0.0949 µM; stronger effect = lower value
endpointLabel: viability, T/C

{"compound": "CNCc1ccc(-c2cc(-c3nc(-c4ccc(S(=O)(=O)C(C)C)cc4)cnc3N)on2)cc1 + COc1cc2c(cc1O)CCNC21CSC2c3c(OC(C)=O)c(C)c4c(c3C(COC1=O)N1C(O)C3Cc5cc(C)c(OC)c(O)c5C(C21)N3C)OCO4", "systemTested": "SW 1271 complex tumor spheroid viability", "viability, T/C": "38.5%"}

Record request: viability, T/C value, item Cc1sc2c(c1C)C(c1ccc(Cl)cc1)=NC(CC(=O)Nc1ccc(O)cc1)c1nnc(C)n1-2 (centres undefined) + COc1cc2c(cc1O)CCNC21CSC2c3c(OC(C)=O)c(C)c4c(c3C(COC1=O)N1C(O)C3Cc5cc(C)c(OC)c(O)c5C(C21)N3C)OCO4 13.5%

Record request: viability, T/C value, item O=C(c1cc(Cc2n[nH]c(=O)c3ccccc23)ccc1F)N1CCN(C(=O)C2CC2)CC1 + COc1cc2c(cc1O)CCNC21CSC2c3c(OC(C)=O)c(C)c4c(c3C(COC1=O)N1C(O)C3Cc5cc(C)c(OC)c(O)c5C(C21)N3C)OCO4 28%

Record request: viability, T/C value, item Cn1ncnc1[C@H]1c2n[nH]c(=O)c3cc(F)cc(c23)N[C@@H]1c1ccc(F)cc1 + COc1cc2c(cc1O)CCNC21CSC2c3c(OC(C)=O)c(C)c4c(c3C(COC1=O)N1C(O)C3Cc5cc(C)c(OC)c(O)c5C(C21)N3C)OCO4 27.7%

###

# System: SW 1271 complex tumor spheroid viability
# measurementProtocol: Anticancer human tumor SW 1271 cell line growth inhibition; active = viability on the fitted dose curve at most 10% of control; inactive = the rest;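 further: spheroids exposed to agents for seven days before readout; percent of DMSO vehicle control luminescence so 100% = vehicle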
# protocolConditions: second compound 0.0003 µM; first compound 10 µM
Answer with one of the outcomes given here: active, inactive

These solved cases illustrate the format of a correct answer.
{"molecule": "CC(C)n1c(=O)n(C)c2cnc3cc(F)c(-c4ccc(OCCCN5CCCCC5)nc4)cc3c21 + COc1cc2c(cc1O)CCNC21CSC2c3c(OC(C)=O)c(C)c4c(c3C(COC1=O)N1C(O)C3Cc5cc(C)c(OC)c(O)c5C(C21)N3C)OCO4", "label": "inactive"}
{"molecule": "[2H]c1nc(C)nc([2H])c1-c1cc(NC[C@@H](C)c2cccc3c(C(=O)NC)ccnc23)ncn1 + COc1cc2c(cc1O)CCNC21CSC2c3c(OC(C)=O)c(C)c4c(c3C(COC1=O)N1C(O)C3Cc5cc(C)c(OC)c(O)c5C(C21)N3C)OCO4", "label": "inactive"}
{"molecule": "Cc1cc(C)c(CNC(=O)c2cc(-c3ccc(CN4CCOCC4)cc3)cc3c2cnn3C2CCCC2)c(=O)[nH]1 + COc1cc2c(cc1O)CCNC21CSC2c3c(OC(C)=O)c(C)c4c(c3C(COC1=O)N1C(O)C3Cc5cc(C)c(OC)c(O)c5C(C21)N3C)OCO4", "label": "inactive"}
{"molecule": "CC1COCCN1c1cc(-c2ccnn2C)c2ccnc(-c3ccn[nH]3)c2n1 (stereo unspecified) + COc1cc2c(cc1O)CCNC21CSC2c3c(OC(C)=O)c(C)c4c(c3C(COC1=O)N1C(O)C3Cc5cc(C)c(OC)c(O)c5C(C21)N3C)OCO4", "label": "active"}
{"molecule": "COc1cc(C)[nH]c(=O)c1CN1CCc2c(Cl)cc(C(OC)C3COC3)c(Cl)c2C1=O (stereo unspecified) + COc1cc2c(cc1O)CCNC21CSC2c3c(OC(C)=O)c(C)c4c(c3C(COC1=O)N1C(O)C3Cc5cc(C)c(OC)c(O)c5C(C21)N3C)OCO4", "label": "inactive"}

Kindly consider the entry below.
# outcome recorded in this test, key = COc1ccc([C@@H](O)c2cc(-c3ncnc4cc(N5CCOCC5)ccc34)c(F)cc2Cl)nn1 + COc1cc2c(cc1O)CCNC21CSC2c3c(OC(C)=O)c(C)c4c(c3C(COC1=O)N1C(O)C3Cc5cc(C)c(OC)c(O)c5C(C21)N3C)OCO4 active
